# maps each entry to its NanoDSF thermal unfolding temperature
# tested.on: T1, deamidase polypeptide from Chryseobacterium sp-62563 (deamidase domain of the pro-form SEQ ID NO: 5) (Chryseobacterium sp-62563)
# T1 chain: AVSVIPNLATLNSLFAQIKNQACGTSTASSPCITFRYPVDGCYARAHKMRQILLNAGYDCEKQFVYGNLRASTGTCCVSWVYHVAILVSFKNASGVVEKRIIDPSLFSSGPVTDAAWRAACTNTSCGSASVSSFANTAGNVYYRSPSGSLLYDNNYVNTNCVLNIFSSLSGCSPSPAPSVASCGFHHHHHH
# experiment.description: cell-based or functional assay
Write down the numeric answer in °C and omit the unit.

Some solved cases for reference:
variant deamidase propeptide Y45G of Chryseobacterium sp-62563 (SEQ ID NO: 2) (other) NQDPNLVAKESNETAMKDFGKTVPVGIEKEDGKFKISFMVTAQPGEIKDSKENAAYISMIKTAVENETPIHVFLKANTNEIAKVDKATDDDIRYFKSVFTKEVKEENRK; 65.2
variant deamidase propeptide F99G of Chryseobacterium sp-62563 (SEQ ID NO: 2) (other) NQDPNLVAKESNETAMKDFGKTVPVGIEKEDGKFKISFMVTAQPYEIKDSKENAAYISMIKTAVENETPIHVFLKANTNEIAKVDKATDDDIRYFKSVGTKEVKEENRK; 74.1
variant deamidase propeptide F99K of Chryseobacterium sp-62563 (SEQ ID NO: 2) (other) NQDPNLVAKESNETAMKDFGKTVPVGIEKEDGKFKISFMVTAQPYEIKDSKENAAYISMIKTAVENETPIHVFLKANTNEIAKVDKATDDDIRYFKSVKTKEVKEENRK; 75.4

Consider the record given below.
Input: What NanoDSF thermal unfolding temperature value was documented for this binder, variant deamidase propeptide F38C of Chryseobacterium sp-62563 (SEQ ID NO: 2) (other) NQDPNLVAKESNETAMKDFGKTVPVGIEKEDGKFKISCMVTAQPYEIKDSKENAAYISMIKTAVENETPIHVFLKANTNEIAKVDKATDDDIRYFKSVFTKEVKEENRK ?
Output: 76.2
